target: A1 receptors from rat brain membranes (Rattus norvegicus); construct: Rat cerebral cortical and striatal membranes were prepared; from tissue; host or cells: rat brain (cerebral cortical) membranes; experiment: biochemical; type: binding; settings: read-out: A1 percent displacement
Sequence (P25099 whole entry): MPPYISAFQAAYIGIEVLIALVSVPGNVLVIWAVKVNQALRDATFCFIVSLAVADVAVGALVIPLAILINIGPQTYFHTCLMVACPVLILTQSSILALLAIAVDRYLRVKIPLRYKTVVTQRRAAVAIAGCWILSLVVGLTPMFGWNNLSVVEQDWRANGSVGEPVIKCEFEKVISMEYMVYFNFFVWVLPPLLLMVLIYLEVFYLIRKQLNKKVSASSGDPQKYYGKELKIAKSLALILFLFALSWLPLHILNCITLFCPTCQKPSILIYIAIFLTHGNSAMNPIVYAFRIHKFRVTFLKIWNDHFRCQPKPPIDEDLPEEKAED
Task for the reader: assign each of the following compounds its reported inhibition at 100 µM.
The reply should contain only the number, in %.

// query Give a short answer stating reported inhibition at 100 µM for CCNC(=O)[C@H]1O[C@@H](n2cnc3c(=O)[nH]cnc32)[C@H](O)[C@@H]1O [Compound 91, inosine-5'-N-ethyluronamide] .
// result 43.7

// query Give a short answer stating reported inhibition at 100 µM for "NCCNC(=O)[C@H]1O[C@@H](n2cnc3c(N)ncnc32)[C@H](O)[C@@H]1O" .
// result 0

// query Give a short answer stating reported inhibition at 100 µM for "CCCCn1c(=O)c2c(ncn2[C@@H]2O[C@H](C(=O)NC)[C@@H](O)[C@H]2O)n(CCCC)c1=O" .
// result 30

// query Give a short answer stating reported inhibition at 100 µM for Nc1ccn([C@@H]2O[C@H](CO)[C@@H](O)[C@H]2O)c(=O)n1 [Compound 84, cytidine, reference compound] .
// result 18

// query Give a short answer stating reported inhibition at 100 µM for Nc1ncnc2c1nc(Br)n2[C@@H]1O[C@H](CO)[C@@H](O)[C@H]1O [Compound 31, 8-bromoadenosine, reference compound] .
// result 41.5

// query Give a short answer stating reported inhibition at 100 µM for Nc1ncnc2c1ncn2[C@]1(CO)O[C@H](CO)[C@@H](O)[C@H]1O [Compound 80, β-D-psicofuranosyladenine, reference compound] .
// result 36.1
